# Tested on: AAK1;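 also: KINOMEscan kinase panel screen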
# Experimental parameters: concentration: 1 μM, replicates: in singlicate; n = 1
Kindly state %Inh for each of the entries shown.
Give bare numbers, in %.

Completed entries (count: 2):
INSERT INTO assay_data (cpd_smiles, observed) VALUES
  ('O=c1[nH]cc(-c2ccc(N3CCOCC3)cc2)c2sc(-c3cn[nH]c3)cc12', 23),
  ('CC(C)c1nc(-c2cccc(NS(=O)(=O)c3c(F)cccc3F)c2F)c(-c2ccnc(Nc3ccc(N4CCOCC4)nc3)n2)s1', 0);

Please go through the list and note %Inh for each molecule.
1. Nc1ncc(-c2ccc3nccc(-c4ccncc4)c3c2)cc1S(=O)(=O)N1CCOCC1
2. CCn1c(-c2nonc2N)nc2c(C#CC(C)(C)O)ncc(OCCCCN)c21.O=C(O)C(F)(F)F.O=C(O)C(F)(F)F

Ans.
18
41

Hello, the source for this data is paper PMC5540273, in case you need it.
